Each entry below lists one item and its recorded IC50 value.
# Test system: Leishmania donovani
# EXPERIMENT: GSK_TCAKS: pIC50 Leishmania donovani viability assay using fluorescence intensity. Assay plates (1536-well) were prepared by adding 30nL per well of compound. For single shot assay, the final compound concentration was 5uM. […] Briefly, eGFP LdBOB axenic amastigotes were harvested, fixed and counted in a CASY cell counter (Roche-Applied Science). A final concentration of 1.5 * 10^5 cells per well were prepared in amastigote media containing 500 U/mL penicillin/streptomycin (Invitrogen) and 6uL was dispensed to each experimental well using a Multidrop Combi dispenser (Thermo Scientific). 6uL of assay media was dispensed to control columns used as reference for 100% compound response. Following incubation for 72 h at 37C, 5% CO2, 2 uL of resazurin was added to each well at a final concentration of 0.5 mM in phosphate buffered saline (PBS) with IGEPAL (Sigma-Aldrich), 0.05% (v/v).
# Format: functional, organism-based

Solved entries:
{"COMPOUND": "N#Cc1cc([N+](=O)[O-])ccc1NC1CCCCCC1", "SYSTEM": "Leishmania donovani", "IC50": "> 50.1 µM"}
{"COMPOUND": "Cc1nc(N2CCC(C(=O)N3CCC(O)(c4cccnc4)CC3)CC2)nc2ccc(C(C)C)cc12", "SYSTEM": "Leishmania donovani", "IC50": "> 50.1 µM"}

Consider the compound FC(F)(F)c1cc(C2CCCN(Cc3c[nH]c4ccccc34)C2)nc2ncnn12 (stereo unspecified) and give its measured IC50. > 50.1 µM

Look at this compound and give its reported IC50. O=c1[nH]c(C=Cc2cccc(OCCOc3ccccc3)c2)nc(O)c1[N+](=O)[O-] > 50.1 µM

Data request, read-out IC50, for COc1ccc([N+](=O)[O-])cc1NC(=O)Nc1cccc(Cl)c1 > 50.1 µM

Recorded IC50 for CCCCNc1nccc(-c2c(-c3ccc(F)cc3)nn3c(N4CCOCC4)cccc23)n1 , please? > 50.1 µM

Entry under review: COc1ccc(C2CC(c3ccccc3Cl)=NN2C(=O)CNC(=O)C2CCCC2)cc1 (stereo unspecified) . Reported IC50? > 50.1 µM

Any idea what IC50 was measured for CCCCCNC(=O)c1c[nH]c2ccc(S(=O)(=O)N(C)c3ccc(OCC)cc3)cc2c1=O ? > 50.1 µM

Recorded IC50 of Cn1ccnc1-c1nc(NCc2ccccc2Cl)cc(C2CC2)n1 , please. 1.58 µM

Name the reported IC50 value associated with the compound COc1ccc(C)cc1-c1csc(NC(=O)C(C)n2ccnc2)n1 (stereo unspecified) 3.16 µM

What does the record list as IC50 for COCc1cc(Nc2cccc(Cl)c2)nc(-c2ccccn2)n1 ? 2.51 µM

Quick one: IC50 of O=C(c1ccc(Cl)cc1)c1ccc(OC(=O)N2CCOCC2)cc1 ? 6.31 µM

I have this compound here, CCc1ccc2nc(NC(=O)c3cc(N4CCOCC4)ccn3)sc2c1 , and I need its recorded IC50. 2 µM

# get_value(readout='IC50', item= Cc1ccc(NC(=O)c2ccc(Cl)c(NC(=O)c3ccc([N+](=O)[O-])cc3)c2)cc1 ) > 50.1 µM

Recorded IC50 of CCc1cccc(CC)c1-n1c(SCC(=O)N2CC(=O)Nc3ccccc32)nnc1-c1cccnc1 , please. 39.8 µM

Query (compound): Cc1nn(-c2nc3ccccc3s2)c2c1C(c1ccc(OCC(N)=O)cc1)SCC(=O)N2 (stereo unspecified) ; field requested: IC50 > 50.1 µM

====

Recorded IC50 at 48 h, one value per entry.
# EXPERIMENT: GSK_TCAKS: pIC50 HepG2 human cell line viability assay using luminiscence. […] Seeding density was checked to ensure that new mono-layers were not more than 50% confluent at the time of harvesting. Cell suspension was added to 500 mL of the same medium at a final density of 1.2 * 10^5 cells/mL. This cell suspension was dispensed (25 uL, 3000 cells per well) into 384-well clear-bottom plates using a Multidrop Combi dispenser. Prior to addition of the cell suspension, the screening compounds (250 nL) were pre-dispensed into the plates with an Echo liquid handler. Plates were incubated for 48 h at 37C, 5% CO2. After incubation, plates equilibrated at room temperature for 30 min before proceeding to develop the luminescent signal. The signal developer, CellTiter-Glo Reagent, was allowed to equilibrate at room temperature for 30 min and added to the plates (25uL per well) using a Multidrop Combi dispenser. Plates were left for 10 min at room temperature for stabilization and then read using a ViewLux.
# Type: toxicity, cell-based
Return type: number; implicit unit µM.

# example entries with known answers
{"COMPOUND": "Cc1nc2c(-c3nc(-c4ccc(N)cc4)n[nH]3)cccn2c1C", "IC50 at 48 h [µM]": 15.8}
{"COMPOUND": "COc1ccc(CNc2nsc3ccccc23)cc1OC", "IC50 at 48 h [µM]": 50.1}

Entry N#CN1CC[C@@H](NC(=O)Nc2ccccc2Oc2ccccc2)C1 : reported IC50 at 48 h = ? 39.8

====

# System: Trypanosoma brucei brucei
# EXPERIMENT: GSK_TCAKS: pIC50 Trypanosoma brucei viability assay using luminiscence. Assay plates (1536-well) were prepared. T. brucei cultures were harvested and counted in a CASY cell counter. A parasite suspension was prepared at a final concentration of 5 * 10^4 cells/mL in complete HMI9 medium and 6uL was dispensed to all wells containing compounds using a Multidrop Combi dispenser. 6uL of HMI9 media with 0.4% DMSO were dispensed to control columns. Plates were incubated for 24 h at 37C, 5% CO2 then tempered for 10 min at room temperature. ATP content was quantified by adding 4 uL of CellTiter-Glo Reagent (Promega) according to the manufacturer's instructions. Luminescence was measured using a ViewLux.
# Type: functional, organism-based
# ASSAY_CONTEXT: Lister 427, CASY
Listed compounds paired with reported pIC50
A value of pIC50 is the negative decimal logarithm of a concentration given in moles per litre.

{"COMPOUND": "O=[N+]([O-])c1ccc(-c2nnn(-c3ccc(Cl)cc3)n2)o1", "SYSTEM": "Trypanosoma brucei brucei", "VALUE_KIND": "pIC50", "REPORTED": 6.00}
{"COMPOUND": "O=C(COc1ccccc1)Nc1ccccc1C(=O)Nc1nccs1", "SYSTEM": "Trypanosoma brucei brucei", "VALUE_KIND": "pIC50", "REPORTED": 6.20}
{"COMPOUND": "Nc1ncnc2c1ncn2[C@@H]1O[C@H](CO)C[C@H]1O [CORDYCEPIN]", "SYSTEM": "Trypanosoma brucei brucei", "VALUE_KIND": "pIC50", "REPORTED": 8.00}
{"COMPOUND": "Cc1ccnc(NS(=O)(=O)c2ccc(NC(=O)c3ccc([N+](=O)[O-])s3)cc2)n1", "SYSTEM": "Trypanosoma brucei brucei", "VALUE_KIND": "pIC50", "REPORTED": 6.40}
{"COMPOUND": "CNC(=O)C1Cc2ccccc2N1C(=O)Cc1ccccc1 (stereo not drawn)", "SYSTEM": "Trypanosoma brucei brucei", "VALUE_KIND": "pIC50", "REPORTED": 6.00}

Value lookup for pIC50; key = O=C(Nc1cccc(Cl)c1)Nc1ccc([N+](=O)[O-])cc1Cl 5.50

Any idea what its pIC50 is? The compound is COc1ccc(OC)c(S(=O)(=O)N(Cc2c(F)cccc2F)[C@@H]2CCN(C#N)C2)c1 6.10

Can you share its pIC50? I mean this compound: N=C(N)Nc1nc(-c2ccc(NC(=N)NCCN3CCCC3)cc2)cs1 7.00

Please give the measured pIC50 for this compound: O=C(O)[C@H]1C[C@@H]1c1ccc(-c2ccc(CN(CCc3ccccn3)C(=O)C3CCC3)cc2)cc1 6.10

What does the data say about its pIC50? Entry: O=C(NC1CCN(C2Cc3ccc(NS(=O)(=O)c4cc(F)cc(F)c4)cc3C2)CC1)C1CC1 (stereo not drawn) 6.10

Give the measured pIC50 of O=c1nc(NCCCNCc2cc(Br)cc(Br)c2)[nH]c2ccsc12 . 7.00

====

# Tested on: Trypanosoma cruzi
# EXPERIMENT: GSK_TCAKS: pIC50 Trypanosoma cruzi viability assay using beta-GAL activity. This assay was run at single shot at 5uM compound concentration per well. The biological reagents consisted of NIH-3T3 host cells and trypomastigotes parasitic cells; both cell types were set to a 3.3 * 10^5 cells/mL dilution in assay DMEM by means of a CASY cell counter device using a 60um capillary. 6 uL of the mixture were dispensed per well (about 1 * 10^3 host-cells and 1 * 10^3 parasites) with a Multidrop Combi dispenser. […] In all wells, the percentage of DMSO never exceeded 0.5%. Plates incubated for four days at 37C, 5% CO2. The substrate used for the assay fluorescence intensity (FLINT) readout was resorufin-beta-D-galactopiranoside (Sigma-Aldrich) at 5uM per well. It was diluted in PBS supplemented with the soft detergent Igepal (Fluka).
# Type: functional, organism-based, Mus musculus
# ASSAY_CONTEXT: Tulahuen, NIH3T3
VALUE_KIND: pIC50
# pIC50 is unitless: minus log10 of the molar concentration; print number only

{"INPUT_SMILES": "O=C(NCCc1ccn(-c2ccccc2)n1)C1CCCCC1", "pIC50": 5.90}

Query the reported pIC50 for Trypanosoma cruzi; item: OCCCNc1nc(Nc2ccncc2)nc2ccccc12 6.15

Give recorded pIC50 with Trypanosoma cruzi for the following compound: CC(C)(C)Nc1nc(Nc2ccc3c(c2)CS(=O)(=O)C3)nc2[nH]ccc12 6.00

Request: pIC50, test system Trypanosoma cruzi, entry CC(C)(C)c1cc(NC2CC2)nc(-c2ccccn2)n1 5.90
